SYSTEM: HPK1 (Homo sapiens)
Sequence (Q92918 1-346 limits assumed): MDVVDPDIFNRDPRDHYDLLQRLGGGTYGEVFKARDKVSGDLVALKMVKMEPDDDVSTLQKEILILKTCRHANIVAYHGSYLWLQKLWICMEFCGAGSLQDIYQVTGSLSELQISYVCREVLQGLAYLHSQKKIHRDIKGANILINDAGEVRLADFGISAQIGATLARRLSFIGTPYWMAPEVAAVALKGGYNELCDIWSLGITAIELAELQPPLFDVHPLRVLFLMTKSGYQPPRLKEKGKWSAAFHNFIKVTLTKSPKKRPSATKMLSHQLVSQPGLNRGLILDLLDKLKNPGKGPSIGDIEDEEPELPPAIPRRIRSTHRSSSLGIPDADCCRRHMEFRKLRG
REPORTED ENDPOINT: IC50 (nM)

MOLECULAR STRING: O=C1NCCCN1c1nc(-c2cnc3[nH]cc(C4CC4)c3c2Cl)cs1
REPORTED ENDPOINT: IC50
NUMERIC RESULT: 18.9
--
MOLECULAR STRING: Cc1sc(N2CCCNC2=O)nc1-c1cnc2[nH]cc(C3CC3)c2c1Cl
REPORTED ENDPOINT: IC50
NUMERIC RESULT: 126
--
MOLECULAR STRING: CCc1c[nH]c2ncc(-c3cccc(N4CCCNC4=O)c3)c(Cl)c12
REPORTED ENDPOINT: IC50
NUMERIC RESULT: 2
--
MOLECULAR STRING: CCc1c[nH]c2ncc(-c3cccc(-n4cn[nH]c4=O)c3)c(Cl)c12
REPORTED ENDPOINT: IC50
NUMERIC RESULT: 20.6
--
MOLECULAR STRING: CCc1c[nH]c2ncc(-c3cccc(N4CCNC4=O)c3)c(Cl)c12
REPORTED ENDPOINT: IC50
NUMERIC RESULT: 25.7
